Hey, just so you know, these numbers are from the PETadex activity labels (doi:10.1016/j.bbalip.2005.11.003).

Property: kcat/Km; scope: individual proteins
substrate: tripropionin; settings: pH 7; 25 °C
API: value field is a number in M⁻¹ s⁻¹; no unit string.

Field: example entries. Status: answers known.
For unnamed (protein) MAKKDEHLRKPEWLKIKLNTNENYTGLKKLMRENNLHTVCEEAKCPNIHECWAVRRTATFMILGSVCTRACRFCAVKTGLPTELDLQEPERVADSVALMNLKHAVITAVARDDQKDGGAGIFAETVRAIRRKSPFTTIEVLPSDMGGNYDNLKTLMDTRPDILNHNIETVRRLTPRVRARATYDRSLEFLRRAKEMQPDIPTKSSIMIGLGETKEEIIEVMDDLLANNVDIMAIGQYLQPTKKHLKVQKYYHPDEFAELKEIAMQKGFSHCEAGPLVRSSYHADEQVNEASKKRQAQA the protein record lists kcat/Km as 12500

For record unnamed (protein) MLDMPIDPVYYQLAEYFDSLPKFDQFSSAREYREAINRIYEERNRQLSQHERVERVEDRTIKGRNGDIRVRVYQQKPDSPVLVYYHGGGFVICSIESHDALCRRIARLSNSTVVSVDYRLAPEHKFPAAVYDCYDATKWVAENAEELRIDPSKIFVGGDSAGGNLAAAVSIMARDSGEDFIKHQILIYPVVNFVAPTPSLLEFGEGLWILDQKIMSWFSEQYFSREEDKFNPLASVIFADLENLPPALIITAEYDPLRDEGEVFGQMLRRAGVEASIVRYRGVLHGFINYYPVLKAARDAINQIAALLVFD the listed kcat/Km is 367000

The protein identified as unnamed (protein) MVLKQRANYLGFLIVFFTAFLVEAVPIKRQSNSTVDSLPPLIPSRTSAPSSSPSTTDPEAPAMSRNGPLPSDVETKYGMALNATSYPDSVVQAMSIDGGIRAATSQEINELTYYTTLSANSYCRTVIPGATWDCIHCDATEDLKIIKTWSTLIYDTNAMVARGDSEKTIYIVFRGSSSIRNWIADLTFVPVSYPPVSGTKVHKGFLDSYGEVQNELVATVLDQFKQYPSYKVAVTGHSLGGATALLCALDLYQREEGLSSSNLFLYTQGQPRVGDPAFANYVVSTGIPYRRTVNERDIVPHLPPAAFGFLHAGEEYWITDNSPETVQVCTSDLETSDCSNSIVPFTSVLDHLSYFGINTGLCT registered its kcat/Km at 11100

Please examine the following record next.
// field: kcat/Km; key: unnamed (protein) MRSSLVLFFVSAWTALASPIRREVSQDLFNQFNLFAQYSAAAYCGKNNDAPAGTNITCTGNACPEVEKADATFLYSFEDSGVGDVTGFLALDNTNKLIVLSFRGSRSIENWIGNLNFDLKEINDICSGCRGHDGFTSSWRSVADTLRQKVEDAVREHPDYRVVFTGHSLGGALATVAGADLRGNGYDIDVFSYGAPRVGNRAFAEFLTVQTGGTLYRITHTNDIVPRLPPREFGYSHSSPEYWIKSGTLVPVTRNDIVKIEGIDATGGNNQPNIPDIPAHLWYFGLIGTCL ; value = 16100
